Examples of compounds with documented LDH follow.
# Organism: Rattus norvegicus
# protocol.details: Open TG-GATES - Regimen: Daily Repeat
# Assay type: toxicity, organism-based, Sprague-Dawley
# Set-up: regimen Daily Repeat, gender Male, age 6 weeks
# condition.parameters: in vivo, po, 1000 mg/kg, […], tissue Plasma, route gavage, dose level High, time 7 day
Give the value in IU/L but do not write IU/L after it.

Below are worked cases with known answers.
CNC(=C[N+](=O)[O-])NCCSCc1ccc(CN(C)C)o1 = 169.6
Cc1nnc2n1-c1ccc(Cl)cc1C(c1ccccc1Cl)=NC2 = 86.2
O=C(OC[C@H]1O[C@@H](OC(=O)c2cc(O)c(O)c(OC(=O)c3cc(O)c(O)c(O)c3)c2)[C@H](OC(=O)c2cc(O)c(O)c(OC(=O)c3cc(O)c(O)c(O)c3)c2)[C@@H](OC(=O)c2cc(O)c(O)c(OC(=O)c3cc(O)c(O)c(O)c3)c2)[C@@H]1OC(=O)c1cc(O)c(O)c(OC(=O)c2cc(O)c(O)c(O)c2)c1)c1cc(O)c(O)c(OC(=O)c2cc(O)c(O)c(O)c2)c1 = 93.4
COC(=O)C1=C(C)NC(C)=C(C(=O)OC)C1c1ccccc1[N+](=O)[O-] = 86
CCOc1ccc(NC(C)=O)cc1 = 81.4

Enquiry: Entry under review: CN/C(=N/CCSCc1nc[nH]c1C)NC#N . Reported LDH?
Return: 279.2
